ASSAY SYSTEM: T1, SpCID1 (caffeine-induced death suppressor 1, terminal uridylyl transferase) (Schizosaccharomyces pombe, UniProt O13833 1-405)
T1 sequence: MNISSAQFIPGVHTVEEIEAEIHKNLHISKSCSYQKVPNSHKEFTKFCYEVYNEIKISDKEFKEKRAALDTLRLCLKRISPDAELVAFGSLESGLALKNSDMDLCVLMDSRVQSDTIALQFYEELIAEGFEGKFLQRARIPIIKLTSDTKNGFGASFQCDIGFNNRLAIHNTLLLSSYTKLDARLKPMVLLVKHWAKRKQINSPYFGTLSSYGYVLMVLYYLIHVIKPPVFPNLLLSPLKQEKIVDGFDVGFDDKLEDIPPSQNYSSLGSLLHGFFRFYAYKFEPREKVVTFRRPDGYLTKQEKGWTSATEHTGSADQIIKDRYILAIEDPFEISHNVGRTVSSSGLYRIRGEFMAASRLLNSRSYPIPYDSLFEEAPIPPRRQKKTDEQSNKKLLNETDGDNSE
METHOD NOTES: fluorescence titration
READOUT KIND: pKd
In simple prose, pKd is minus the logarithm base ten of a concentration in moles per litre.

Kindly indicate its recorded pKd. Item: UUACCAUAGAAUCAUGUGCCAUACAUCAU (ssRNA, 3'-terminal U (position 29) is 5-benzofuran-uridine (BFU)) [4BFU]
6.28
